Cited source for all entries: PubChem BioAssay (NCI)

Test: NCI Yeast Anticancer Drug Screen. Data for the mlh1 strain (AID 171);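 also: 0% = growth of vehicle-treated control cultures of the same strain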
Conditions: S. cerevisiae mlh1 strain growth inhibition; at 1.2 µM; hits give high values
Description: Growth inhibition of yeast strains with defined genetic alterations is measured as a screen for potential anti-cancer activity. Selected strains with alterations in DNA damage repair or cell cycle control were exposed to compounds and growth inhibition was measured relative to vehicle treated controls. The strain used in this assay is mlh1
Compounds without any hit were thinned out: in the full panel of roughly 79,000, 15% have a hit.
I'd appreciate it if you could supply growth inhibition values for the items below.
Use % as the unit, but write only the number.

Input: Reported growth inhibition, compound Cc1cccc2c(NCCCN(C)C)c3c([N+](=O)[O-])ccc(C)c3nc12 : ____
Output: 8

Input: Quick one: growth inhibition for NC(CCCCCCCCCCCCC(N)C(=O)c1ccccc1)C(=O)c1ccccc1 (stereo not drawn) ?
Output: -4

Input: growth inhibition for OB(O)c1ccccc1C#Cc1ccccc1 ?
Output: -2

Input: Sample O=C1C(/C=C/c2ccc(Cl)cc2)=NNC2N1N=C1NC(=O)C3(NN12)c1ccccc1-c1ccccc13 (stereo not drawn) — what was its growth inhibition?
Output: 0

Input: Which growth inhibition value is on record for CC(C)OC(=O)NNc1cc(Cl)ccc1Cl ?
Output: -1

Input: Report growth inhibition for Cc1cccc(C)c1NC(=O)C(C#N)C1=C(Cl)C(=O)c2ccccc2C1=O (stereo not drawn) please.
Output: -4

Input: Entry Oc1c2c(c(O)c3ccccc13)C1(N=N2)c2ccccc2Oc2ccccc21 : reported growth inhibition = ?
Output: 13

Input: Form field: reported growth inhibition of CC(=O)NC(c1nc2cc(C)c(C)cc2[nH]1)c1nc2cc(C)c(C)cc2[nH]1
Output: -45

Input: # get_value(readout='growth inhibition', item= O/N=c1/ccn(O)c2ccccc12 )
Output: 2

Input: Which growth inhibition reading was recorded for the compound O=C1NC(c2cccc(OCc3ccccc3)c2)Nc2ccccc21 (stereo not drawn) ?
Output: 1

Input: Look at this compound and give its reported growth inhibition. CC1(c2ccccc2)O[C@@H]2C[C@H]3[C@@H]4CCC5=CC(=O)C=C[C@]5(C)[C@@]4(F)[C@@H](O)C[C@]3(C)[C@]2(C(=O)CO)O1 (stereo partly drawn)
Output: -1

Input: What value of growth inhibition has been recorded for this entry: CCOC(=O)CC1(C)/C(=N\Nc2ccc([N+](=O)[O-])cc2[N+](=O)[O-])CCC2C1CCC1(C)C(C(C)CCCC(C)C)CCC21 (stereo not drawn)
Output: -1

Input: Consider the compound COc1cc([C@@H]2c3cc4c(cc3[C@@H](NC(=O)NO)[C@H]3COC(=O)[C@H]23)OCO4)cc(OC)c1O and give its measured growth inhibition.
Output: 0

Input: Which growth inhibition is listed for CC1=COC2=C(C)C(=O)C(=O)c3c(C)ccc1c32 ?
Output: 25

Input: What does the record list as growth inhibition for Cc1ccc([N+](=O)[O-])c2c(NCCC[N+](C)(C)[O-])c3ccccc3nc12 ?
Output: 26

Input: Report growth inhibition for c1ccc2c(c1)N=C1CCCC3CCCC123 (stereo not drawn) please.
Output: 6

Input: Which growth inhibition value is on record for O=Cc1ccccc1C=O ?
Output: -6

Input: Would you kindly share the measured growth inhibition for COc1cc(NCCCCNCC(C)(C)C)c2ncccc2c1 ?
Output: -3

Input: Name the reported growth inhibition value associated with the compound COc1cccc(/C=C2\S/C(=N/Nc3nc(-c4ccc([N+](=O)[O-])cc4)cs3)NC2=O)c1O
Output: -1

Input: Reported growth inhibition, compound C/C(=N/NC(=S)Nc1ccccc1C)c1ccccn1 : ____
Output: -6

Input: Any idea what growth inhibition was measured for CC(CN(C)C)C(=O)/C=C/c1ccc(Cl)c(Cl)c1 (stereo not drawn) ?
Output: 4

Input: Consider the compound shown here: CCC1(O)C(=O)OCc2c1cc1n(c2=O)Cc2cc3c(N)cccc3nc2-1 (stereo not drawn) What is its recorded growth inhibition?
Output: -23

Input: Name the reported growth inhibition value associated with the compound O=S(=O)(c1cccc(C(F)(F)F)c1)N1c2ccccc2-n2cccc2C1c1cccnc1 (stereo not drawn)
Output: -43

Input: Which growth inhibition is listed for Nc1ccc2c(c1)C(=O)c1c(F)cccc1-2 ?
Output: 7

Input: Item COc1cc(OC)c(CSCC(NC(=O)OCC2c3ccccc3-c3ccccc32)C(=O)O)c(OC)c1 (stereo not drawn) has what recorded growth inhibition?
Output: 3

Input: Please report the recorded growth inhibition for O=[N+]([O-])c1ccc(S(=O)(=O)Cc2ccccc2)c([N+](=O)[O-])c1 .
Output: 9

Input: Suppose we examine the compound CCOC(=O)Nc1ccc(C)c(NC(=O)OCC)c1 ; what growth inhibition value has been reported?
Output: 3

Input: Which growth inhibition reading was recorded for the compound CN1C(=O)C(CC(=O)O)NC1=S (stereo not drawn) ?
Output: -2

Input: I'd like to know its growth inhibition. The compound in question is Cc1ccc(Nc2n[nH]c(=S)s2)c(C)c1
Output: -9

Input: Sample CCOc1ccc(N)c(S)c1 — what was its growth inhibition?
Output: 0

Input: # get_value(readout='growth inhibition', item= CCN(CC)CCNc1ccc2ncn3c4ccc(O)cc4c(=O)c1c23 )
Output: -5

Input: I'd like to know its growth inhibition. The compound in question is COc1ccc(C(=O)/C=C\c2ccc(Cl)c(Cl)c2)cc1
Output: 11

Input: Recorded growth inhibition of CCN(CC)CCNc1ccc(C)c2sc3ccc(O)cc3c(=O)c12 , please.
Output: 45

Input: Which measured growth inhibition value corresponds to CC(C)S(=O)(=O)/C=C\S(=O)(=O)C(C)C ?
Output: -8

Input: What value of growth inhibition has been reported for the following compound? COC(=O)/C(C#N)=C\NC(=S)C(N)=S
Output: 17

Input: # lookup: growth inhibition of c1ccc([P+](CCN2Cc3ccccc3C2)(c2ccccc2)c2ccccc2)cc1
Output: -39

Input: Quick one: growth inhibition of O=C1C(=C2CCCC2)CCC1CN1CCCCC1 (stereo not drawn) ?
Output: 0

Input: Endpoint output: growth inhibition of CN(C)CC(CN(C)C)C(=O)/C=C/c1ccc(Cl)cc1Cl . Value?
Output: -3
